Where these numbers come from: ChEMBL document CHEMBL5055660

assay: Cytotoxicity against NHDF cells assessed as reduction in cell viability measured after 96 hrs by MTS assay; type: cell-based; conditions: human
Mark satisfied only for CC50 at 96 h values smaller than 30 µM; exact matches and larger values are not satisfied.

>>> df
                   smiles_representation          class
0       Fc1cccc(Nc2ccc3ccc4cccnc4c3n2)c1      satisfied
1        c1ccc(Nc2ccc3ccc4cccnc4c3n2)cc1  not satisfied
2       Fc1ccc(Nc2ccc3ccc4cccnc4c3n2)cc1      satisfied
3      COc1cccc(Nc2ccc3ccc4cccnc4c3n2)c1  not satisfied
4      Clc1cccc(Nc2ccc3ccc4cccnc4c3n2)c1      satisfied
5                 c1cnc2c(c1)ccc1cccnc12  not satisfied
6     N#Cc1ccc(Nc2ccc3ccc4cccnc4c3n2)cc1  not satisfied
7  c1ccc2c(Nc3ccc4ccc5cccnc5c4n3)cccc2c1      satisfied
8      COc1ccc(Nc2ccc3ccc4cccnc4c3n2)cc1      satisfied

* * *

test system: Toxoplasma gondii; assay: Anti-tachyzoite activity against RFP-expressing Toxoplasma gondii RH Type 1 infected in NHDF cells assessed as inhibition of parasite proliferation measured after 96 hrs by fluorescence plate reader; assay type: functional; details: RH Type 1, NHDF, read-out: ED50 (the source's name)
Okay, here is how we bin by EC50: category 1 (below 300 nM), category 2 (300 nM to below 600 nM), category 3 (600 nM or more)

In [3]: df
Out[3]:
                   smiles_representation     assayed_system       class
0       Fc1ccc(Nc2ccc3ccc4cccnc4c3n2)cc1  Toxoplasma gondii  category 2
1        c1ccc(Nc2ccc3ccc4cccnc4c3n2)cc1  Toxoplasma gondii  category 3
2     N#Cc1cccc(Nc2ccc3ccc4cccnc4c3n2)c1  Toxoplasma gondii  category 2
3                 c1cnc2c(c1)ccc1cccnc12  Toxoplasma gondii  category 3
4      Clc1cccc(Nc2ccc3ccc4cccnc4c3n2)c1  Toxoplasma gondii  category 2
5      COc1cccc(Nc2ccc3ccc4cccnc4c3n2)c1  Toxoplasma gondii  category 2
6      COc1ccc(Nc2ccc3ccc4cccnc4c3n2)cc1  Toxoplasma gondii  category 1
7       Fc1cccc(Nc2ccc3ccc4cccnc4c3n2)c1  Toxoplasma gondii  category 2
8     N#Cc1ccc(Nc2ccc3ccc4cccnc4c3n2)cc1  Toxoplasma gondii  category 3
9  c1ccc2c(Nc3ccc4ccc5cccnc5c4n3)cccc2c1  Toxoplasma gondii  category 1

* * *

test: Selectivity index, ratio of CC50 for cytotoxicity against NHDF cells to ED50 for Anti-tachyzoite activity against RFP-expressing Toxoplasma gondii RH Type 1 infected in NHDF cells; assay type: toxicity, cell-based; conditions: human; read-out: Selectivity Index
PARAMETER_MEASURED: selectivity ratio

>>> print(df.to_string())
                   smiles_representation  recorded_result
0  c1ccc2c(Nc3ccc4ccc5cccnc5c4n3)cccc2c1              114
1      COc1ccc(Nc2ccc3ccc4cccnc4c3n2)cc1               63
2        c1ccc(Nc2ccc3ccc4cccnc4c3n2)cc1               73
3     N#Cc1cccc(Nc2ccc3ccc4cccnc4c3n2)c1               98
4      COc1cccc(Nc2ccc3ccc4cccnc4c3n2)c1              111
5       Fc1ccc(Nc2ccc3ccc4cccnc4c3n2)cc1               96
6                 c1cnc2c(c1)ccc1cccnc12               31
7     N#Cc1ccc(Nc2ccc3ccc4cccnc4c3n2)cc1               21
8       Fc1cccc(Nc2ccc3ccc4cccnc4c3n2)c1               75
9      Clc1cccc(Nc2ccc3ccc4cccnc4c3n2)c1               42
